- Experiment: chemical genetic growth profiling, strain panel (AID 1159580);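 also: tested at 20 µM; growth read once vehicle control cultures reached saturation at 30 °C; 1 = growth at the plate median or of vehicle wells; lower values mean less growth of the strain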
- Applied conditions: S. cerevisiae deletion strains, growth OD, locus YHR079C, strain IRE1, active compounds read low
Screen size: about 5,500 compounds; about 2,000 (36%) were called active. Inconclusive results (about 18%) are left out. The list shows a part of the results.
With a cut-off of 1, any normalized growth strictly below it is called 1 (yes); any normalized growth meeting it or above is called 0 (no).

Use these answered entries as a reference point.
O=C(Nc1ccc(Cl)cc1)SCc1c(Cl)cccc1Cl	1 (yes)
O=C(Nc1ccc(C(=O)O)c(O)c1)c1ccccc1	1 (yes)
C[C@@H]1C(=O)O[C@H]2[C@H]1CC[C@@]1(C)C=CC(=O)[C@@]3(C)O[C@@]213	0 (no)
O=C(CSCc1csc2ccccc12)Nc1ccc(F)c(Cl)c1	1 (yes)

# next compound below
// query Given the entry `Cc1cn([C@H]2C[C@H](N=[N+]=[N-])[C@@H](CO)O2)c(=O)[nH]c1=O` , would its reported normalized growth be below 1?
// result 1 (yes)
